Cited source: patent US9376694B2

In this section we review reported Production amount of L-amino acid values for a set of compounds.
assayed target: branched-chain transaminase (Escherichia coli, UniProt P0AB80)
Construct: made in house; host or cells: E. coli BL21(DE3)
Sequence (P0AB80 whole entry): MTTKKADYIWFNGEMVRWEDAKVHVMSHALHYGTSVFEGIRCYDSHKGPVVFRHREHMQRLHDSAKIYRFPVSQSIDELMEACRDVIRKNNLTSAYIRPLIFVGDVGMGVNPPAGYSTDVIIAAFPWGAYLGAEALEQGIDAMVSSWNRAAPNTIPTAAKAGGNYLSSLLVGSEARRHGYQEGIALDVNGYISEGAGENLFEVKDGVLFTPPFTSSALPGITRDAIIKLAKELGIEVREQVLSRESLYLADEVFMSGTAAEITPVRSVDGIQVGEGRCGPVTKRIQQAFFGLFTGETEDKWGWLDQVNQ
measurement description: Substrate specificity of branched-chain transaminase for amino acids, enzyme-containing crude extract
Type: biochemical, E. coli
protocol conditions: 20 mM L-amino acid, 20 mM α-ketoglutarate as keto acid, pH 7.0, 37° C., 30 minutes
// units = mM; emit number, no label

CC[C@H](N)C(=O)O = 0.1
CC[C@H](C)[C@H](N)C(=O)O = 2.6
CC(C)(C)[C@H](N)C(=O)O = 0.06

Next:
QUERY: Supply Production amount of L-amino acid value. Item: CC(C)[C@H](N)C(=O)O
RESULT: 1.6

* * *

System: ω-transaminase derived from Ochrobactrum anthropi
measurement description: Substrate specificity of purified ω-transaminase for amino acids (glyoxylate acceptor), OawTA
Assay type: biochemical
protocol conditions: 20 mM glyoxylate, 20 mM L-amino acid, pH 7.0, 37° C., 6 hours
We use 0.4 mM as the dividing line for Concentration of L-glycine, OawTA: on or above the line is Criterion met, below is Criterion not met.

CCCC[C@H](N)C(=O)O = Criterion not met
CC[C@H](C)[C@H](N)C(=O)O = Criterion not met
CCC[C@H](N)C(=O)O = Criterion not met
CC(C)[C@H](N)C(=O)O = Criterion not met
CC(C)C[C@H](N)C(=O)O = Criterion not met
C[C@H](N)C(=O)O = Criterion met

QUERY: Reported Concentration of L-glycine, OawTA at or above 0.4 mM? CC[C@H](N)C(=O)O
RESULT: Criterion met

* * *

assayed target: branched-chain transaminase (Escherichia coli)
Construct: made in house; host or cells: E. coli BL21(DE3)
measurement description: Substrate specificity of purified branched-chain transaminase for keto acids
Format: biochemical, E. coli
protocol conditions: purified enzyme (1 U/mL); 20 mM L-homoalanine, 20 mM keto acid, pH 7.0, 37° C., 7 hours
In this section we review reported Concentration of 2-oxobutyrate values for a set of compounds.
// units = mM; emit number, no label

O=C(O)C(=O)C12CC3CC(CC(O)(C3)C1)C2 = 5.47
CC(C)CC(=O)C(=O)O = 7.27
CC(C)(C)C(=O)C(=O)O [Trimethylpyruvate] = 5.83

QUERY: Supply Concentration of 2-oxobutyrate value. Item: CC(C)C(=O)C(=O)O [3-Methyl-2-oxobutyrate]
RESULT: 11.93

QUERY: Supply Concentration of 2-oxobutyrate value. Item: CCC(C)C(=O)C(=O)O (centres unmarked)
RESULT: 8.49

* * *

In this section we review reported Concentration of acetophenone, OawTA values for a set of compounds.
Test system: ω-transaminase derived from Ochrobactrum anthropi
measurement description: Substrate specificity of purified ω-transaminase for keto acids, OawTA
Format: biochemical
protocol conditions: 20 mM keto acid, 20 mM (S)-α-methylbenzylamine, pH 7.0, 37° C., 6 hours
// units = mM; emit number, no label

CCCC(=O)C(=O)O [2-Oxopentanoic acid] = 3.45
CC(C)CC(=O)C(=O)O [4-Methyl-2-oxopentanoic acid] = 0.03
CC(C)C(=O)C(=O)O [3-Methyl-2-oxobutyrate] = 0.00

Next:
QUERY: Supply Concentration of acetophenone, OawTA value. Item: CCCCC(=O)C(=O)O [2-Oxohexanoic acid]
RESULT: 3.07
